molecular target: PDE4; test: Inhibition of PDE4, radioenzymatic phosphodiesterase assay; assay type: biochemical, bovine; conditions: Table 3, formula (II); 1 μM cyclic AMP
pIC50: −log10 of the molar value.
pIC50 below 5 gives Not fulfilled; pIC50 at or above it gives Fulfilled.

{"compound": "CCOc1cc2c(cc1OCC)N(CC)C(=O)C(Cc1ccccc1)N=C2c1ccccc1 (stereo not drawn)", "assigned class": "Fulfilled"}

Quick check, pIC50 >= 5? CCN1C(=O)C(Cc2cccc(C(N)=O)c2)N=C(c2ccccc2)c2cc(OC)c(OC)cc21 (stereo not drawn)
Fulfilled

Okay, and "CCN1C(=O)CN=C(c2ccc(Br)cc2)c2cc(OC)c(OC)cc21" ?
Not fulfilled

Okay, and "CCN1C(=O)CN=C(c2ccc(C#CCNC(=O)OC(C)(C)C)cc2)c2cc(OC)c(OC)cc21" ?
Fulfilled

Okay, and CCN1C(=O)C(Cc2ccccc2Br)N=C(c2ccccc2)c2cc(OC)c(OC)cc21 (stereo not drawn) ?
Fulfilled
